The measured values listed here are drawn from ChEMBL document CHEMBL4513216.

Form field: cytotoxicity at 10 µM (one value per entry).
- PROTOCOL: Toxicity liver stage against HepG2, at 10uM
- Format: cell-based
- Design: test concentration 10 uM, cell line HepG2-A16-CD81EGFP
- TEST CONDITIONS: human, HepG2-A16-CD81EGFP cells; read-out: INHIBITION
Reply with just the number (in %).

Recorded cytotoxicity at 10 µM, per entry:
1) CCC(=O)N1CCCCC1c1nc(CN(C)C(C)=O)cc(N(C)C)n1 (stereo unspecified): -3.17
2) COC1CCN(C(=O)NCC(N)=O)CC(=O)N(C)c2ccccc21 (stereo unspecified): 4.79
3) COc1cc(OC)cc(-c2noc(C(N)CCSC)n2)c1 (stereo unspecified): -3.18
4) CC(C)(C)c1n[nH]c(C2CN(C(=O)CCc3cscn3)CCO2)n1 (stereo unspecified): -17.3

stdin: Any idea what its cytotoxicity at 10 µM is? The molecule is Cc1cc(NC(=O)NCc2cccnc2OC(C)C)n(C)n1
stdout: 3.2

stdin: Could you tell me which cytotoxicity at 10 µM is on file for CS(=O)(=O)c1ccc(OCCNCc2ccc(F)cc2F)cc1 ?
stdout: -8.25

stdin: Using the record for CC(C(=O)N(C)Cc1ccco1)n1cncn1 (stereo unspecified) , report its cytotoxicity at 10 µM.
stdout: 4.4

stdin: So what's the measured cytotoxicity at 10 µM for this one? O=C(NCCc1nccs1)[C@H](c1ccccc1)n1cnnn1
stdout: -0.607

stdin: Request the reported cytotoxicity at 10 µM associated with COc1ccc(C)cc1NC(=O)C1CSc2ncc(C)c(=O)n2C1 (stereo unspecified)
stdout: -1.99

stdin: Record request: cytotoxicity at 10 µM value, item CCC(CC)c1cc(CNC(=O)N2CCC[C@@H]2CO)on1
stdout: -5.16

stdin: Look at this molecule and give its reported cytotoxicity at 10 µM. CC(C)(Oc1ccc(C(N)=O)cc1)C(=O)N(CCC#N)CC1CCCO1 (stereo unspecified)
stdout: 5.55

stdin: Reported cytotoxicity at 10 µM for COc1ccc(CNC(=O)c2nn(C)c3c2CS(=O)(=O)CC3)cc1OC : what is it?
stdout: 8.09

stdin: Need cytotoxicity at 10 µM, item CC(C)(C)CC(NC(=O)N1CCS(=O)(=O)CC1)C(F)(F)F (stereo unspecified)
stdout: 0.106

stdin: Which cytotoxicity at 10 µM is reported for this molecule? Cc1cccc(C(=O)N2C[C@@H]3OCCN(CCN4CCCC4)[C@@H]3C2)n1
stdout: -65

stdin: Can you share its cytotoxicity at 10 µM? I mean this molecule: COC(=O)C(NC(=O)c1ccc(C)cc1C)c1cccnc1 (stereo unspecified)
stdout: -41.9

stdin: Given the molecule CCNC(=O)c1nnn(Cc2ccccc2)c1OC , what is its reported cytotoxicity at 10 µM?
stdout: 4.62

stdin: cytotoxicity at 10 µM for CCn1ccc(-c2nnc(SCC(=O)Nc3ccc(C)cc3)n2CC)n1 ?
stdout: 5.11

stdin: Look at this molecule and give its reported cytotoxicity at 10 µM. COc1nc(C)ccc1CNC(=O)NC(C)(C)c1ncc(C)s1
stdout: 14.7

stdin: // cytotoxicity at 10 µM lookup, key: CNc1ccnc(N2C[C@@H](C)[C@](O)(C3CCC3)C2)n1
stdout: -10.1

stdin: Looking for the measured cytotoxicity at 10 µM of CC(=O)N1CCN(c2cc(-n3cccc3)ncn2)CC1 , can you help?
stdout: -2

stdin: Fill blank: measured cytotoxicity at 10 µM of the molecule c1ccc(OC[C@]23COC[C@H]2CN(C2CCOCC2)C3)nc1 is ____.
stdout: -2.6

stdin: Could you share which cytotoxicity at 10 µM value was measured for O=C(NC[C@@H]1CCCO1)c1cccnc1N1CCCC1c1ccccn1 (stereo partly specified) ?
stdout: -1.08

stdin: Recorded cytotoxicity at 10 µM of COc1cc(CNCCn2ccnc2)cc2c1OCO2 , please.
stdout: 5.17

====

- PROTOCOL: Toxicity liver stage against HepG2, at 10uM
- Type: cell-based
- Parameters: test concentration 10 uM, cell line HepG2-A16-CD81EGFP
- TEST CONDITIONS: human, HepG2-A16-CD81EGFP cells; read-out: INHIBITION
ASSAY ENDPOINT: cytotoxicity at 10 µM (%)
Expressed in %, but write only the number.

Record excerpt, results attached:
1) CN(C)c1ncc(NC(=O)c2cccc(Nc3cnn(C)c3)c2)cn1: -2.93
2) CNC(=O)C1(N2CCC[C@H]2C(=O)NC2CCOCC2)CCOCC1: 0.705
3) CC(C)CC(N)C1=NC(=C2N=CN=N2)NO1 (configuration not stated): 10.6
4) CC(O)CN1CCN(C(=O)c2ccc(Br)o2)CC1 (configuration not stated): -8.6
5) CCS(=O)(=O)N1C[C@@H]2CN(Cc3cccs3)CCO[C@@H]2C1: -138

stdin: Could you tell me which cytotoxicity at 10 µM is on file for Cn1ncc2c1CCCC2NCc1cccc2c1OCCCO2 (configuration not stated) ?
stdout: -9.86

stdin: Returns the measured cytotoxicity at 10 µM for the input compound. Input: O=C(CNC(=O)N1CCc2c([nH]c3ccc(Cl)cc23)C1)NC1CCCC1
stdout: -2.91

stdin: Any idea what cytotoxicity at 10 µM was measured for CN(C)CCNc1ccc(-c2nc(-c3ccccc3F)no2)cn1 ?
stdout: 9.34

stdin: So what's the measured cytotoxicity at 10 µM for this one? O=C(c1ccc2c(c1)OCO2)N1CCN2C(=O)NC[C@H]2C1
stdout: 2.02

stdin: I am curious: what cytotoxicity at 10 µM value has been reported for Cc1ccccc1OCC(O)C(=O)N1CCC2(CC1)CN(C)C(=O)O2 (configuration not stated) ?
stdout: -47.6

stdin: Which cytotoxicity at 10 µM is reported for this compound? COCC(C)(C#N)NC(=O)COc1ccccc1Br (configuration not stated)
stdout: 5.67

stdin: // lookup cytotoxicity at 10 µM for NCc1n[nH]c(=O)n1-c1ccccc1Oc1ccccc1
stdout: -5.04

stdin: Param item = CCN1CCC(NC(=O)CN2CCCC2Cn2cccn2)CC1 (configuration not stated) ; retrieve measured cytotoxicity at 10 µM.
stdout: 1.98

stdin: Record request: cytotoxicity at 10 µM value, item O=C1NCC2(CCCN(C(=O)c3ccc4c(c3)OCCO4)CC2)O1 (configuration not stated)
stdout: -9.35

stdin: // returns reported cytotoxicity at 10 µM for input CC(O)CN1CCC(CNCc2ccccc2Cl)CC1 (configuration not stated)
stdout: -11.9

stdin: Request the reported cytotoxicity at 10 µM associated with COC(=O)[C@H]1C[C@@H](O)CCN1S(=O)(=O)c1cc(Cl)ccc1OC
stdout: 5.1

====

- PROTOCOL: Toxicity liver stage against HepG2, at 10uM
- Assay type: cell-based
- Parameters: test concentration 10 uM, cell line HepG2-A16-CD81EGFP
- TEST CONDITIONS: human, HepG2-A16-CD81EGFP cells; read-out: INHIBITION
ASSAY ENDPOINT: cytotoxicity at 10 µM (%)
Could you give me the number in %? Just the number is fine.

1. CCc1nc(C2CCCN2CC(=O)Nc2cc(C)on2)no1 (centres undefined): -3.08

stdin: Quick one: cytotoxicity at 10 µM for Cc1ccc(CNC(=O)Cn2c(=O)c3cccnc3n2C)cc1F ?
stdout: -2.83

stdin: Which value of cytotoxicity at 10 µM has been reported for O=C(CCNC(=O)N1CCC(c2ccccc2)C1)N1CCCCC1 (centres undefined) in the records?
stdout: -3.41

stdin: Which cytotoxicity at 10 µM reading was recorded for the compound CC1CN(C(=O)NCCNc2cnccn2)CCO1 (centres undefined) ?
stdout: 5.31

stdin: Which cytotoxicity at 10 µM value is on record for NC(=O)Cn1ccc(NC(=O)C2(c3cccc(Cl)c3)CC2)n1 ?
stdout: 0.217

stdin: What does the record list as cytotoxicity at 10 µM for c1ccc(CN(Cc2ncc[nH]2)Cc2nccs2)cc1 ?
stdout: 6.35

stdin: Which cytotoxicity at 10 µM reading was recorded for the compound Cn1c(C2CC2)nc2c1CCN(Cc1nc3ccccc3s1)C2 ?
stdout: -4.69

====

Listed here are compounds together with their documented cytotoxicity at 10 µM.
- PROTOCOL: Toxicity liver stage against HepG2, at 10uM
- Type: cell-based
- Set-up: test concentration 10 uM, cell line HepG2-A16-CD81EGFP
- TEST CONDITIONS: human, HepG2-A16-CD81EGFP cells; read-out: INHIBITION
Give the number; % is assumed, so skip it.

# example entries with known answers
1) Cc1noc(C2(NC(=O)c3cccnc3O)CCCCC2)n1: -9.83
2) c1cc(CNCC2Cn3nncc3CO2)co1 (stereo unspecified): 7.8
3) COc1cccc(Nc2nc(C3CCNCC3)c3sc(C)c(C)n23)c1: 4.24

stdin: Any idea what cytotoxicity at 10 µM was measured for CCOC(=O)N1CCN(C(=O)C2CC(=O)N(c3ccccc3Br)C2)CC1 (stereo unspecified) ?
stdout: -7.22

stdin: May I ask what cytotoxicity at 10 µM has been recorded for CCCc1nnc2sc(C3CCS(=O)(=O)CC3)nn12 ?
stdout: 1.4

stdin: Data request, read-out cytotoxicity at 10 µM, for Cc1nc(C)c(CNC(=O)N2CCN(c3ccc(Cl)cn3)CC2)s1
stdout: 55.8

stdin: Field request: cytotoxicity at 10 µM | item: Cn1nc(C(=O)N2CCCC2)c(F)c1NC(=O)Cc1ccccc1
stdout: 1.41

stdin: Given the entry CC(NC(=O)CCCOc1ccccc1Cl)c1ccncc1 (stereo unspecified) , report its measured cytotoxicity at 10 µM.
stdout: -13

stdin: Query: cytotoxicity at 10 µM; subject: CNc1ncc(CN(C)c2nc(C)c3ccc(S(C)(=O)=O)cc3n2)cn1
stdout: -3.66

stdin: # lookup: cytotoxicity at 10 µM of NC(=O)c1cc(NC(=O)N2CCOCC2)ccc1F
stdout: -48.8

stdin: Which cytotoxicity at 10 µM is listed for CCOCC1CN(CCN2CCCCC2)Cc2cnn(C)c21 (stereo unspecified) ?
stdout: -99.9

stdin: What value of cytotoxicity at 10 µM has been reported for the following compound? COc1ccccc1Oc1cncc(C2CCCN(CC(N)=O)C2)n1 (stereo unspecified)
stdout: -15.5

stdin: If you can, please state the reported cytotoxicity at 10 µM value of Cc1cccnc1CNC(=O)N(CCCO)C1CCc2ccccc21 (stereo unspecified) .
stdout: -11.4

stdin: I am curious: what cytotoxicity at 10 µM value has been reported for Cc1cc(=O)[nH]c(=O)n1-c1cccc(Cl)c1Cl ?
stdout: -3.57

stdin: Consider the compound Fc1cccc(-c2nc(CN3CCCCC3Cn3cncn3)co2)c1 (stereo unspecified) and give its measured cytotoxicity at 10 µM.
stdout: -12.8

stdin: Look up cytotoxicity at 10 µM: CCO[C@@H]1CC[C@H]2[C@H]1OCCN2C(=O)CC1=CCCCC1
stdout: 2.91
